Data provenance: PubChem BioAssay (NCI)

System: SW-620 colon
Assay name: NCI tumour cell line growth inhibition, 48 h
Assignment: determine reported TGI for the given compounds.

Given the compound O=C(Nc1ccc2[nH]nc(-c3ccncc3)c2c1)[C@@H]1CCN(CC(=O)N2CCN(c3ccc(-c4ncccn4)cc3)CC2)C1 , what is its reported TGI?
> 100 µM

Param item: CCOC(=O)c1ccc(NC(=O)Nc2nncs2)cc1
> 100 µM

Param item: CCN(Cc1ccc(C)cc1)c1ccc(CO)c(Cl)c1
16.5 µM

Param item: C=CCN(c1cc(OCc2ccccc2)c2[nH]cc(C)c2c1)S(C)(=O)=O
> 100 µM

Param item: COc1ccc(C(=O)C2=NON3OC23C(=O)c2ccc(OC)cc2)cc1 (stereo not drawn)
11.4 µM

Param item: COC(=O)C1CCc2c1c(=O)n1c([nH]c3ccccc31)c2C#N (stereo not drawn)
> 100 µM

Param item: COC(=O)/C(C#N)=C(\Nc1ccccc1)N1CCOCC1
> 100 µM

Param item: COc1cc(Nc2nc3cc(N)cc(N)c3nc2-c2ccccc2)cc(OC)c1OC
> 100 µM
